Source listed as patent US20220227765A1.

# experiment_notes: Human hepatocyte metabolic stability
# Format: in vitro ADME
Give human hepatocytes extr. Ratio for every item shown.
Give the figure only, with no unit attached.

Quick check: human hepatocytes extr. Ratio of C#CC(=O)N1[C@@H](CC2CC2)Cc2c([nH]c3ccccc23)[C@@H]1c1ccc(NC23CC4CC(CC(C4)C2)C3)cc1 ?
0.58

Quick check: human hepatocytes extr. Ratio of C#CC(=O)N1[C@@H](CCCC)Cc2c([nH]c3c(F)cc(F)cc23)[C@@H]1c1ccccn1 ?
0.93

Quick check: human hepatocytes extr. Ratio of C#CC(=O)N1[C@@H](CCCC)Cc2c([nH]c3c(F)cc(F)cc23)[C@@H]1c1ccc(NC(=O)OCCCCC)cc1 ?
0.61

Quick check: human hepatocytes extr. Ratio of O=C(CCl)N1[C@@H](CC2CC2)Cc2c([nH]c3ccccc23)[C@@H]1c1ccc(NC23CC4CC(CC(C4)C2)C3)cc1 ?
0.13

---

# experiment_notes: Kinetic solubility (PBS, pH 7.4)
# Assay type: physicochemical
# condition_description: aqueous buffer, kinetic from dmso stock, Table B-4
Give solubility kinetic for every item shown.
Respond numerically; units are µM and should not be typed.

Quick check: solubility kinetic of C#CC(=O)N1[C@@H](CCCC)Cc2c([nH]c3c(F)cc(F)cc23)[C@@H]1c1ccccn1 [Compound B-31] ?
3

Quick check: solubility kinetic of C#CC(=O)N1[C@@H](CCCC)Cc2c([nH]c3ccccc23)[C@@H]1c1ccc(C(=O)NCCOC)cc1 [Compound B-3] ?
4

Quick check: solubility kinetic of C#CC(=O)N1[C@@H](CCCC)Cc2c([nH]c3c(F)cc(F)cc23)[C@@H]1c1ccc(NC(=O)OCCCCC)cc1 [Compound B-25] ?
1

---

Give rat hepatocytes extr. Ratio for every item shown.
# experiment_notes: Rat hepatocyte metabolic stability
# Type: in vitro ADME

Quick check: rat hepatocytes extr. Ratio of C#CC(=O)N1[C@@H](CC2CC2)Cc2c([nH]c3ccccc23)[C@@H]1c1ccc(NC23CC4CC(CC(C4)C2)C3)cc1 ?
0.64

Quick check: rat hepatocytes extr. Ratio of O=C(CCl)N1[C@@H](CC2CC2)Cc2c([nH]c3ccccc23)[C@@H]1c1ccc(NC23CC4CC(CC(C4)C2)C3)cc1 ?
0.7

Quick check: rat hepatocytes extr. Ratio of C#CC(=O)N1[C@@H](CCCC)Cc2c([nH]c3c(F)cc(F)cc23)[C@@H]1c1ccccn1 ?
0.94

Quick check: rat hepatocytes extr. Ratio of C#CC(=O)N1[C@@H](CCCC)Cc2c([nH]c3c(F)cc(F)cc23)[C@@H]1c1ccc(NC(=O)OCCCCC)cc1 ?
0.61

---

# experiment_notes: Human blood stability
# Type: in vitro ADME
# condition_description: 15 min
value_kind: human blood stability % remaining (%_15)
Respond numerically; units are %_15 and should not be typed.

Quick check: human blood stability % remaining of C#CC(=O)N1[C@@H](CCCC)Cc2c([nH]c3c(F)cc(F)cc23)[C@@H]1c1ccc(NC(=O)OCCCCC)cc1 [Compound B-25] ?
80

Quick check: human blood stability % remaining of C#CC(=O)N1[C@@H](CCCC)Cc2c([nH]c3c(F)cc(F)cc23)[C@@H]1c1ccccn1 [Compound B-31] ?
9.7

Quick check: human blood stability % remaining of C#CC(=O)N1[C@@H](CCCC)Cc2c([nH]c3ccccc23)[C@@H]1c1ccc(C(=O)NCCOC)cc1 [Compound B-3] ?
90

---

# Tested on: SJSA-1
# experiment_notes: Cell proliferation (Alamar Blue) assay, SJSA-1
# Assay type: cell-based, human
# condition_description: Homo sapiens, SJSA-1, 24 h, Table B-3, head prints SJSB-1, 24 h, read-out: IC50 (μM) SJSB-1
Give IC50 for every item shown.
Respond numerically; units are µM and should not be typed.

Quick check: IC50 of CCCCCOC(=O)NC12CC([C@H]3c4[nH]c5c(F)cc(F)cc5c4C[C@H](CCCC)N3C(=O)CCl)(C1)C2 ?
0.03

Quick check: IC50 of CCCC[C@H]1Cc2c([nH]c3c(F)cc(F)cc23)[C@H](c2ccc(N)cc2)N1C(=O)CCl ?
0.024

Quick check: IC50 of C#CC(=O)N1[C@@H](CCCC)Cc2c([nH]c3c(F)cc(F)cc23)[C@@H]1C1CCC2(CC1)OCCO2 ?
0.504

Quick check: IC50 of C#CC(=O)N1[C@@H](CCCC)Cc2c([nH]c3c(F)cc(F)cc23)[C@@H]1C1CCC(O)CC1 (stereo partly shown) ?
0.16

Quick check: IC50 of C#CC(=O)N1[C@@H](CCCC)Cc2c([nH]c3c(F)cc(F)cc23)[C@@H]1CC(C)C ?
0.16

Quick check: IC50 of C#CC(=O)N1[C@@H](CCCC)Cc2c([nH]c3c(F)cc(F)cc23)[C@@H]1C1CCC(=O)CC1 ?
0.247

Quick check: IC50 of C#CC(=O)N1[C@@H](CCCC)Cc2c([nH]c3ccc(F)cc23)[C@@H]1c1ccc(NC23CC4CC(CC(C4)C2)C3)cc1 ?
0.012

Quick check: IC50 of C#CC(=O)N1[C@@H](CC2CC2)Cc2c([nH]c3ccccc23)[C@@H]1c1ccc(NC23CC4CC(CC(C4)C2)C3)cc1 ?
0.004

Quick check: IC50 of C#CC(=O)N1[C@@H](CCCC)Cc2c([nH]c3ccccc23)[C@@H]1C12CC3CC(CC(C3)C1)C2 ?
1.37

Quick check: IC50 of C#CC(=O)N1[C@@H](CCCC)Cc2c([nH]c3ccccc23)[C@@H]1c1ccc(C(=O)NCC2(O)CCC2)cc1 ?
0.029

Quick check: IC50 of O=C(CCl)N1[C@@H](CC2CC2)Cc2c([nH]c3ccccc23)[C@@H]1c1ccc(NC23CC4CC(CC(C4)C2)C3)cc1 ?
0.001

Quick check: IC50 of C#CC(=O)N1[C@@H](CCCC)Cc2c([nH]c3ccccc23)[C@@H]1c1ccc(N2CCC3(COC3)C2)cc1 ?
0.036

---

Give hepatocyte CLint for every item shown.
# experiment_notes: Human hepatocyte metabolic stability
# Format: in vitro ADME
# condition_description: human hepatocytes; read-out: human hepatocytes h Clintr (μL/min/10^6 cells)

Quick check: hepatocyte CLint of C#CC(=O)N1[C@@H](CCCC)Cc2c([nH]c3c(F)cc(F)cc23)[C@@H]1c1ccc(NC(=O)OCCCCC)cc1 ?
11 µL/min/1e6 cells

Quick check: hepatocyte CLint of C#CC(=O)N1[C@@H](CC2CC2)Cc2c([nH]c3ccccc23)[C@@H]1c1ccc(NC23CC4CC(CC(C4)C2)C3)cc1 ?
10 µL/min/1e6 cells

Quick check: hepatocyte CLint of C#CC(=O)N1[C@@H](CCCC)Cc2c([nH]c3c(F)cc(F)cc23)[C@@H]1c1ccccn1 ?
99 µL/min/1e6 cells

Quick check: hepatocyte CLint of O=C(CCl)N1[C@@H](CC2CC2)Cc2c([nH]c3ccccc23)[C@@H]1c1ccc(NC23CC4CC(CC(C4)C2)C3)cc1 ?
1.1 µL/min/1e6 cells

---

# condition_description: CD-1, mouse, plasma, 4 h, 2 μM
value_kind: % Remaining (t = 4 hr at 37 C.) (%)
Respond numerically; units are % and should not be typed.

Quick check: % Remaining (t = 4 hr at 37 C.) of C#CC(=O)N1[C@@H](CCCC)Cc2c([nH]c3c(F)cc(F)cc23)[C@@H]1c1ccc(N2CCN(C)CC2)c(F)c1 ?
22.0

Quick check: % Remaining (t = 4 hr at 37 C.) of C#CC(=O)N1[C@@H](CCCC)Cc2c([nH]c3c(F)cc(F)cc23)[C@@H]1C1CCCCC1 ?
56.7

Quick check: % Remaining (t = 4 hr at 37 C.) of CC(=O)CC(c1ccccc1)c1c(O)c2ccccc2oc1=O (stereo not shown) [Warfarin, reference compound] ?
101.2

Quick check: % Remaining (t = 4 hr at 37 C.) of C#CC(=O)N1[C@@H](CCCC)Cc2c([nH]c3c(F)cc(F)cc23)[C@@H]1c1ccc(N)cc1 ?
31.6

---

# experiment_notes: Rat IV pharmacokinetics (2 mg/kg)
# Assay type: in vivo
# condition_description: male, SD, plasma, read-out: Rat IV-PK Vd
value_kind: Vd
Please report the result as a number followed by the unit.

Quick check: Vd of O=C(CCl)N1[C@@H](CC2CC2)Cc2c([nH]c3ccccc23)[C@@H]1c1ccc(NC23CC4CC(CC(C4)C2)C3)cc1 [Compound B-36] ?
3.5 L/kg

Quick check: Vd of C#CC(=O)N1[C@@H](CC2CC2)Cc2c([nH]c3ccccc23)[C@@H]1c1ccc(NC23CC4CC(CC(C4)C2)C3)cc1 [Compound B-37] ?
32 L/kg

---

Give IC50 for every item shown.
# Tested on: A431
# experiment_notes: Cell proliferation (Alamar Blue) assay, A431
# Type: cell-based, human
# condition_description: Homo sapiens, A-431, 24 h, Table A-3, A431 cells
Respond numerically; units are µM and should not be typed.

Quick check: IC50 of C#CC(=O)N1[C@@H](CCCC)Cc2c([nH]c3ncccc23)[C@@H]1c1ccc(NC23CC4CC(CC(C4)C2)C3)cc1 ?
4.88

Quick check: IC50 of C#CC(=O)N1[C@@H](CCCC)Cc2c([nH]c3ncccc23)[C@@H]1c1ccc(F)cc1 ?
8.36

Quick check: IC50 of C[C@H]1Cc2c([nH]c3ncccc23)[C@@H](c2ccc(F)cc2)N1C(=O)CCl ?
7.06
